protocol summary: Plasma pharmacokinetics of lorlatinib at steady state (LC-MS/MS, non-compartmental analysis)
Format: in vivo, human
stated conditions: human, plasma, oral, 150 mg, Cohort A2, 150 mg per dose, C1D15, Median, N 10; read-out: Tmax
measurement type: Tmax (h)
Only the number, expressed in h, is required.

Exercise: Param item = C[C@H]1Oc2cc(cnc2N)-c2c(nn(C)c2C#N)CN(C)C(=O)c2ccc(F)cc21 [Lorlatinib] ; retrieve measured Tmax.
Key: 1

---

protocol summary: Plasma pharmacokinetics of lorlatinib at steady state (LC-MS/MS, non-compartmental analysis)
Format: in vivo, human
stated conditions: human, plasma, oral, 95 mg/m2, Cycle 1 Day 1, Cohort B2, 95 mg/m2 per dose; read-out: Cmax
Excerpt: Lorlatinib was isolated from human plasma by a liquid-iquid extraction procedure. […] A linear-log trapezoidal method was used [NT] A best-fit method was used to estimate terminal elimination and to extrapolate any plasma concentration versus time profiles to compute [NT].
measurement type: Cmax (ng/mL)
Only the number, expressed in ng/mL, is required.

Exercise: Param item = C[C@H]1Oc2cc(cnc2N)-c2c(nn(C)c2C#N)CN(C)C(=O)c2ccc(F)cc21 ; retrieve measured Cmax.
Key: 914
